Source: the Immune Epitope Database (IEDB)

biological target: HLA-B*18:01; assay: IEDB peptide-MHC binding, purified MHC/competitive/fluorescence; filed as Kd, often an IC50 or EC50 that approximates it; bounds were set here for any values at or beyond the usual limits of such assays; conditions: source organism: Salmonella enterica subsp. enterica serovar Typhi
Value kind: Kd

**Query** Find Kd (HLA-B*18:01) for the entry NTDEIPELI
**Result** ≥ 20 µM

---

molecular target: HLA-B*18:01; test: IEDB peptide-MHC binding, purified MHC/competitive/radioactivity; filed as Kd, often an IC50 or EC50 that approximates it; bounds were set here for any values at or beyond the usual limits of such assays; details: source organism: Mammarenavirus guanaritoense
Value kind: Kd

**Query** Requested read-out: Kd. Entry: LEREQIPTLI
**Result** ≥ 57.5 µM
